Molecular target: human GLP-1 receptor (human, UniProt P43220 24-463)
Assay: cell-based or functional assay
Numbered stars: 1 amine (or outer) side, 2 acyl side, 3 side chain; on linkers, the order of the positions; unused ones are H or OH. Square brackets hold non-standard residues; d marks the D form. Side chains are listed from the residue outwards. * marks the point of attachment. C20 diacid = O=C(O)CCCCCCCCCCCCCCCCCCC(=O)*; C18 diacid = O=C(O)CCCCCCCCCCCCCCCCC(=O)*; γGlu = O=C(O)[C@H](CCC(=O)[*:2])N[*:1]; Chem. 28 = not defined here; AEEA = NCCOCCOCC(=O)O; Aib = CC(C)(N)C(=O)O
Give measured hGLP-1R Potency, no HSA, EC50 [pM] for each item. Keep answers brief.
Answers are plain numbers, in pM.

Reference set (3 entries):
Compound 52 (reading uncertain) peptide: Y[Aib]EGTFTSDYSILLEEQAAREFIEWLLAGGPSSGAGQAPGQAPGASHLSTAQTQRLSAELHK(Chem. 28)LATLPRTETGSGSP-NH2	11
Compound 54 (reading uncertain) peptide: Y[Aib]EGTFTSDYSILLEEQAAREFIEWLLAGGPSSGAGQAPGQAPGASK(Chem. 28)LSTAQTQRLSAELHRLATLPRTETGSGSP-NH2	28.8
Compound 28 (reading uncertain) peptide: Y[Aib]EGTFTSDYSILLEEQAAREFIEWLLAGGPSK(Chem. 28)GEASELSTAALARLSAELHRLATLPRTETGSGSP-NH2	96

# batch: return hGLP-1R Potency, no HSA, EC50 [pM] for each of the 7 binders below
1. Compound 15 (peptide) peptide: H[Aib]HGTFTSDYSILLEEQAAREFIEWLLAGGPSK([AEEA-AEEA-γGlu-C18 diacid])GAPPPSGGGEASELSTAALGRLSAELHELATLPRTETGSGSP-NH2
2. Compound 94 (peptide) peptide: Y[Aib]EGTFTSDYSILLEEQAAREFIEWLLAGGPSRGEASHLSTAQTQRLSAELHK([AEEA-AEEA-γGlu-C20 diacid])LATLPRTETGSGSP-NH2
3. Compound 40 (reading uncertain; also: VARIANT 50 Aib (position 50 is T), mods: Aib at 2) peptide: Y[Aib]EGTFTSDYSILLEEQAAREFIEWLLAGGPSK(Chem. 28)GGGGEGGGEGEASHLSTAQTQRLSAELHELATLPRTETGSGSP-NH2
4. Compound 33 (reading uncertain) peptide: Y[Aib]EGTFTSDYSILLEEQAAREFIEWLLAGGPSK(Chem. 28)GAPPEASELSTAALGRLSAELHELATLPRTETGSGSP-NH2
5. Compound 45 (reading uncertain) peptide: H[Aib]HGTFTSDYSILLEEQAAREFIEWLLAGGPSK(Chem. 28)GALAQTLGTNEASHLSTAQTQRLSAELHELATLPRTETGSGSP-NH2
6. Compound 91 (peptide) peptide: H[Aib]HGTFTSDYSILLEEQAAREFIEWLLAGGPSSGAGQAPGQAPGASHLSTAQTQRLSAELHRLK([AEEA-AEEA-γGlu-C18 diacid])TLPRTETGSGSP-NH2
7. Compound 67 (peptide) peptide: Y[Aib]EGTFTSDYSILLEEQAAREFIEWLLAGGPSRGEASELSTAALGRLSAELHK([AEEA-AEEA-γGlu-C18 diacid])LATLPRTETGSGSP-NH2

Reply:
[1.41, 16.1, 23.3, 32.1, 4.78, 3.79, 15.4]

# batch: return hGLP-1R Potency, no HSA, EC50 [pM] for each of the 5 binders below
1. Compound 44 (reading uncertain) peptide: H[Aib]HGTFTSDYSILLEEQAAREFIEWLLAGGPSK(Chem. 28)GALAQTLGTNEASELSTAALGRLSAELHRLATLPRTETGSGSP-NH2
2. Compound 76 (peptide) peptide: Y[Aib]EGTFTSDYSILLEEQAAREFIEWLLAGGPSSGAGQAPGQAPGASHLSTAQTQRLSAELHRLATLPK([AEEA-AEEA-γGlu-C20 diacid])TETGSGSP-NH2
3. Compound 75 (peptide) peptide: H[Aib]HGTFTSDYSILLEEQAAREFIEWLLAGGPSGGEASHLSTAQTQRLSAELHK([AEEA-AEEA-γGlu-C18 diacid])LATLPRTETGSGSP-NH2
4. Compound 63 (peptide) peptide: H[Aib]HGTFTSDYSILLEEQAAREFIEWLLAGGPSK([AEEA-AEEA-γGlu-C18 diacid])GEASQLSTAALGRLSAELHTLATLPRTETGSGSP-NH2
5. Compound 98 (peptide) peptide: Y[Aib]EGTFTSDYSILLEEQAAREFIEWLLAGGPSSGAGQAPGQAPLASHLSTAQTARLSAELHK([AEEA-AEEA-γGlu-C18 diacid])LATLPRTETGSGSP-NH2

Reply:
1. 3.68
2. 19.9
3. 3.66
4. 4.77
5. 13.3

get_value(item= Compound 26 (reading uncertain) peptide: Y[Aib]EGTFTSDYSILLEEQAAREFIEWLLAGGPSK(Chem. 28)GEASELSTAALGRLSAELHELATLPRTETGSGSP-NH2 , readout=hGLP-1R Potency, no HSA, EC50 [pM]) returns 20.7
